- TARGET: Prostaglandin G/H synthase 2 (Homo sapiens, UniProt P35354)
- Sequence (P35354 whole entry): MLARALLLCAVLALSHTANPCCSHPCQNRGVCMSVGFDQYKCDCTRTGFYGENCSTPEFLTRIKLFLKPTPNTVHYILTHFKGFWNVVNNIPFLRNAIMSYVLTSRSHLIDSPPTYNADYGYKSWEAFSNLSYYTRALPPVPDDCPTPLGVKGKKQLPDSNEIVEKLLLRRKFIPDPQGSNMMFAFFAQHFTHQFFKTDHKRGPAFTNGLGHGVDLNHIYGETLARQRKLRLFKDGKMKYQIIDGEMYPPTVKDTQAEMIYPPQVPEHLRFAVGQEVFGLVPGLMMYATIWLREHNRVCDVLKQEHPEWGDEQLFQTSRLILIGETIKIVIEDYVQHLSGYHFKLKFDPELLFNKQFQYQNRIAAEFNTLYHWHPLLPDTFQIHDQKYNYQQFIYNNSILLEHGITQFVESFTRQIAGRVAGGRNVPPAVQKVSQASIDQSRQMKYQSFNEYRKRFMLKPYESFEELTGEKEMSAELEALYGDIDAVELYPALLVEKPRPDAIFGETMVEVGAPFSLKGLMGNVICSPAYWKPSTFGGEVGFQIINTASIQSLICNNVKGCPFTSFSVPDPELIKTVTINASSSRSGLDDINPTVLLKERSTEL
- ASSAY_TEXT: Inhibition of COX2 (unknown origin) expressed in HEK293 TRex cells assessed as reduction in PGE2 production using arachidonic acid as substrate preincubated for 60 mins followed by substrate addition for 1 hr in presence of 10% FBS by RapidFire High-Throughput Mass Spectrometry
- Assay type: cell-based, HEK293-T-REx
pIC50: −log10 of the molar value.
ENDPOINT_NAME: pIC50

1. CCCCOc1nc(OCC(C)(C)O)c(-c2ccc(S(C)(=O)=O)cc2)cc1C(C)O (stereo not given) :: 5.63

[1] CCCCOc1nc(OCC2COC2)c(-c2ccc(S(C)(=O)=O)cc2)cc1CO
[2] CC(C)(O)COc1ncc(C(F)(F)F)cc1-c1ccc(S(C)(=O)=O)cc1
Request: Please indicate which has the smaller reported pIC50: 1 , or 2 . Use the label to indicate which entry you chose.
Result: 2

[P] CCCCOc1nc(OCC(C)(C)O)c(-c2ccc(S(C)(=O)=O)cc2)cc1COCCO
[Q] CCCCOc1nc(OCC(C)(C)O)c(-c2ccc(S(C)(=O)=O)cc2)cc1CO
Request: Lab note: check whether P or Q shows the higher recorded pIC50. Use the label to indicate which entry you chose.
Result: Q
(Q: 7.33, P: 6.27)

[P] CCc1cnc(OCC(C)(C)O)c(-c2ccc(S(C)(=O)=O)cc2)c1
[Q] CCCCOc1nc(OCC(C)(C)O)c(-c2ccc(S(N)(=O)=O)cn2)cc1CO
[R] CCCCOc1nc(OCC2(O)CCC2)c(-c2ccc(S(C)(=O)=O)cc2)cc1CO
[S] Cc1cnc(OCC(C)(C)O)c(-c2ccc(S(C)(=O)=O)cc2)c1
Request: Highest pIC50 first, then in falling order down to the smallest. Thanks in advance for listing the labels in the requested order.
Result: R, Q, P, S
(R: 7.43, Q: 6.64, P: 6.02, S: 5.72)

[a] CCCCOc1nc(OCC2(O)COC2)c(-c2ccc(S(C)(=O)=O)cc2)cc1CO
[b] CCCCOc1nc(OCC2(C)COC2)c(-c2ccc(S(C)(=O)=O)cc2)cc1CO
Request: Lab note: check whether a or b shows the higher recorded pIC50. Use the label to indicate which entry you chose.
Result: b
(b: 6.68, a: 5.88)

* * *

- ASSAY_TEXT: Half life in human hepatocytes
- Assay type: ADME, cell-based, Hepatocyte
ENDPOINT_NAME: half-life (min)

1) Cc1ccc(-c2cc(C(F)(F)F)nn2-c2ccc(S(N)(=O)=O)cc2)cc1 [CELECOXIB] :: 57.4

[P] CCCCOc1nc(OCC(C)(C)O)c(-c2ccc(S(C)(=O)=O)cc2)cc1CO
[Q] CCc1cnc(OCC(C)(C)O)c(-c2ccc(S(C)(=O)=O)cc2)c1
Request: Lab note: check whether P or Q shows the higher recorded half-life. Use the label to indicate which entry you chose.
Result: Q

* * *

- ASSAY_TEXT: Protein binding in human colon assessed as unbound fraction
- Assay type: ADME, tissue-based
ENDPOINT_NAME: fraction unbound

Study these solved cases before continuing.
1. Cc1ccc(-c2cc(C(F)(F)F)nn2-c2ccc(S(N)(=O)=O)cc2)cc1 [CELECOXIB] :: 0.0031
2. CCCCOc1nc(OCC(C)(C)O)c(-c2ccc(S(N)(=O)=O)cn2)cc1CO :: 0.075
3. CC(C)(O)COc1nc(OCCC(F)(F)F)c(CO)cc1-c1ccc(S(C)(=O)=O)cc1 :: 0.224
4. CCCOc1nc(OCC(C)(C)O)c(-c2ccc(S(C)(=O)=O)cc2)cc1CO :: 0.066
5. CC(C)(O)COc1nc(OCCCC(F)(F)F)c(CO)cc1-c1ccc(S(C)(=O)=O)cc1 :: 0.204

[a] CCCCOc1nc(OCC(C)(C)O)c(-c2ccc(S(C)(=O)=O)cc2)cc1CO
[b] CCCCOc1nc(OCC2(O)CCC2)c(-c2ccc(S(C)(=O)=O)cc2)cc1CO
Request: Please indicate which has the smaller reported fraction unbound: a , or b . Use the label to indicate which entry you chose.
Result: a

* * *

- ASSAY_TEXT: Drug concentration in C57BL/6J mouse portal vein plasma at 10 mg/kg, po administered as cassette dose measured at 4 hrs by LC/MS/MS analysis
- Format: ADME, organism-based
ENDPOINT_NAME: concentration at 4 h (ng/mL)

Study these solved cases before continuing.
1) CCCCOc1nc(OCC2(O)CCC2)c(-c2ccc(S(C)(=O)=O)cc2)cc1CO :: 82.4
2) Cc1ccc(-c2ncc(Cl)cc2-c2ccc(S(C)(=O)=O)cc2)cn1 :: 48.6
3) Cc1ccc(-c2cc(C(F)(F)F)nn2-c2ccc(S(N)(=O)=O)cc2)cc1 :: 2150

[a] CCCCOc1nc(OCC(C)(C)O)c(-c2ccc(S(C)(=O)=O)cc2)cc1CO
[b] CCCCOc1nc(OCC(C)(C)O)c(-c2ccc(S(N)(=O)=O)cn2)cc1CO
Request: Please indicate which has the smaller reported concentration at 4 h: a , or b . Use the label to indicate which entry you chose.
Result: b

* * *

- ASSAY_TEXT: Half life in human liver microsomes
- Format: ADME, Microsome
ENDPOINT_NAME: half-life (h)

1) Cc1ccc(-c2cc(C(F)(F)F)nn2-c2ccc(S(N)(=O)=O)cc2)cc1 [CELECOXIB] :: 1.12

[A] CCc1cnc(OCC(C)(C)O)c(-c2ccc(S(C)(=O)=O)cc2)c1
[B] CCCCOc1nc(OCC(C)(C)O)c(-c2ccc(S(C)(=O)=O)cc2)cc1CO
Request: Lab note: check whether A or B shows the higher recorded half-life. Use the label to indicate which entry you chose.
Result: A

* * *

- ASSAY_TEXT: Drug concentration in C57BL/6J mouse colon at 10 mg/kg, po administered as cassette dose measured at 4 hrs by LC/MS/MS analysis
- Assay type: ADME, organism-based
- CONDITION_DETAILS: read-out: Ct
ENDPOINT_NAME: concentration at 4 h (ng/g)

Study these solved cases before continuing.
1. CCCCOc1nc(OCC2COC2)c(-c2ccc(S(C)(=O)=O)cc2)cc1CO :: 1870
2. Cc1ccc(-c2cc(C(F)(F)F)nn2-c2ccc(S(N)(=O)=O)cc2)cc1 :: 9460
3. CCCCOc1nc(OCC(C)(C)O)c(-c2ccc(S(C)(=O)=O)cc2)cc1CO :: 4350
4. CCCCOc1nc(OCC(C)(C)O)c(-c2ccc(S(N)(=O)=O)cn2)cc1CO :: 12000
5. CC(C)(O)COc1nc(OCCCC(F)(F)F)c(CO)cc1-c1ccc(S(C)(=O)=O)cc1 :: 16000
6. Cc1ccc(-c2ncc(Cl)cc2-c2ccc(S(C)(=O)=O)cc2)cn1 :: 55.7
7. CCCCOc1nc(OCC(C)(C)O)c(-c2ccc(S(C)(=O)=O)cc2)cc1COCCO :: 478
8. CCCOc1nc(OCC(C)(C)O)c(-c2ccc(S(C)(=O)=O)cc2)cc1CO :: 5340

[1] CCCCOc1nc(OCC2(O)COC2)c(-c2ccc(S(C)(=O)=O)cc2)cc1CO
[2] CCc1cnc(OCC(C)(C)O)c(-c2ccc(S(C)(=O)=O)cc2)c1
Request: Please indicate which has the smaller reported concentration at 4 h: 1 , or 2 . Use the label to indicate which entry you chose.
Result: 2

[1] CC(C)(O)COc1ncc(C(F)(F)F)cc1-c1ccc(S(C)(=O)=O)cc1
[2] CCCCOc1nc(-c2ccc(F)cc2)c(-c2ccc(S(C)(=O)=O)cc2)cc1CO
Request: Lab note: check whether 1 or 2 shows the higher recorded concentration at 4 h. Use the label to indicate which entry you chose.
Result: 1
(1: 8400 ng/g, 2: 1940 ng/g)

[P] CCCCOc1nc(OCC2(C)COC2)c(-c2ccc(S(C)(=O)=O)cc2)cc1CO
[Q] CCCCOc1nc(OCC(C)(C)O)c(-c2ccc(S(C)(=O)=O)cc2)cc1C(C)O (configuration not stated)
[R] CCCCOc1nc(OCC(C)(C)O)c(-c2ccc(S(C)(=O)=O)cc2)cc1C(C)(C)O
[S] CCCCOc1nc(OCC2(O)CCC2)c(-c2ccc(S(C)(=O)=O)cc2)cc1CO
Request: Please order the records by their reported concentration at 4 h, lowest number first. Thanks in advance for listing the labels in the requested order.
Result: R, P, Q, S
(R: 85.8 ng/g, P: 1850 ng/g, Q: 2810 ng/g, S: 5390 ng/g)

* * *

- TARGET: Prostaglandin G/H synthase 1 (Homo sapiens, UniProt P23219)
- Sequence (P23219 whole entry): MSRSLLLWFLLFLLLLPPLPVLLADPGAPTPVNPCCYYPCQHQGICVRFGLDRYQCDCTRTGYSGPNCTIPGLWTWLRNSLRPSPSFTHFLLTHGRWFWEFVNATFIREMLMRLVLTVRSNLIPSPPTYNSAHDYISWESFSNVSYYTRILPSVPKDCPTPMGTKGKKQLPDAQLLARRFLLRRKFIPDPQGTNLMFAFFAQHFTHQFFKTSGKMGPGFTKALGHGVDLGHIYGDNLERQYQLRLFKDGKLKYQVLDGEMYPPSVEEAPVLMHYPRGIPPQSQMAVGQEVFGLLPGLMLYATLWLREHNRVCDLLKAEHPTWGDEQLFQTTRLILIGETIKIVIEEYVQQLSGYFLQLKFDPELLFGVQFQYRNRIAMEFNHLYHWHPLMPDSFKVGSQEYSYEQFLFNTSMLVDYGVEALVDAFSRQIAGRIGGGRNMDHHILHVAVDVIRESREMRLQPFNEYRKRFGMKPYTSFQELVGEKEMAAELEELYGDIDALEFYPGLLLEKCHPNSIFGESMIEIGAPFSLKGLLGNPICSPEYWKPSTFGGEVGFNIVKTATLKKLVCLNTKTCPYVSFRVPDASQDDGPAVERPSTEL
- ASSAY_TEXT: Inhibition of COX1 (unknown origin) expressed in HEK293 TRex cells assessed as reduction in PGE2 production using arachidonic acid as substrate preincubated for 60 mins followed by substrate addition for 1 hr in presence of 10% FBS by RapidFire High-Throughput Mass Spectrometry
- Assay type: ADME, cell-based, HEK293-T-REx
Measured IC50 by item

Study these solved cases before continuing.
1. CC(C)Oc1nc(OCC(C)(C)O)c(-c2ccc(S(C)(=O)=O)cc2)cc1CO :: > 50 µM
2. CCCCOc1nc(OCC(C)(C)O)c(-c2ccc(S(N)(=O)=O)cn2)cc1CO :: > 50 µM
3. CCCCOc1nc(OCC(C)(C)O)c(-c2ccc(S(C)(=O)=O)cc2)cc1CO :: 14.1 µM

Request: Reported IC50, compound CCCCOc1nc(OCC2(C)COC2)c(-c2ccc(S(C)(=O)=O)cc2)cc1CO : ____
Result: > 50 µM

Request: Reported IC50, compound CCCCOc1nc(OCC2(O)COC2)c(-c2ccc(S(C)(=O)=O)cc2)cc1CO : ____
Result: > 50 µM

Request: Reported IC50, compound Cc1cnc(OCC(C)(C)O)c(-c2ccc(S(C)(=O)=O)cc2)c1 : ____
Result: > 50 µM

Request: Reported IC50, compound CCc1cnc(OCC(C)(C)O)c(-c2ccc(S(C)(=O)=O)cc2)c1 : ____
Result: > 50 µM

Request: Reported IC50, compound CC(C)(O)COc1nc(OCCCC(F)(F)F)c(CO)cc1-c1ccc(S(C)(=O)=O)cc1 : ____
Result: 21.8 µM

Request: Reported IC50, compound Cc1ccc(-c2ncc(Cl)cc2-c2ccc(S(C)(=O)=O)cc2)cn1 [ETORICOXIB] : ____
Result: > 50 µM

Request: Reported IC50, compound CCCCOc1nc(OCC(C)(C)O)c(-c2ccc(S(C)(=O)=O)cc2)cc1C(C)(C)O : ____
Result: > 50 µM
